Target: Sam68 C-terminal region (UniProt Q07666 267-368)
Sequence (Q07666 267-368): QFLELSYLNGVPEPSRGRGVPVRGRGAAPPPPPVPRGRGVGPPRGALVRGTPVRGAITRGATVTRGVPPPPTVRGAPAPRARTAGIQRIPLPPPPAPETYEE
Test: NMR titration; one of two estimates (backbone or Arg side chains; panel assignment not clear, error suggests eight backbone resonances); text range 30-70 uM; NMR: HSQC at 4 C (NMR buffer not given in material; purification in 50 mM sodium phosphate, 150 mM NaCl, pH 7.6 N-term / pH 7.0 C-term). Pull-down: 20 mM HEPES
Details: protein: recombinant; tags: GST removed by PreScission
ATTRIBUTE_MEASURED: pKd
One number for each entry, as −log10 of the molar value.

Give the measured pKd for CUGGGUGACACACUAGCUAUAGCAUUAAAAGACCGAGCAAGU (ssRNA) [G8.5 RNA] 4.49
